B1: F1*; the commonest letter at each place (parent)
chain: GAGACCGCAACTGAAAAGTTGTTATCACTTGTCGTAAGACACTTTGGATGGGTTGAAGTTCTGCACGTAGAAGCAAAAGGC

Variants of: B1
Experiment: fraction ligated after 30 min (ligated reads / total reads); higher = more ligase activity
Conditions: with F1*sub RNA substrate (template-directed ligation), 42 °C
observation-type: fraction ligated
// print number alone

Tell me fraction ligated reported for GAGACCGCAACTGAAAAGTTGTTATCAATTGTCGTAAGACACTTTAGATGGGTTGAAGTTCTGCACGTAGAAGCAAAAGGC [C28A G46A] 0.829

Quickly give me recorded fraction ligated for GAGACCGCAACTGAAAAGTTGTTATCACTTGTCGTAAGACACTTTGGAGGGGTTGAAGTTCTGCACGTAGAAGCAAAAGGC [T49G] 0.778

Please give the documented fraction ligated of GAGACCGCAACTGAAAAGTTGTCATCACTTCTCGTAAGACACTTTGGATGGGTTGAAGTTCTGCACGTAGAAGCAAAAGGC [T23C G31C] 0.666

Please list fraction ligated recorded for the variant GAGACCGCAACTGAAAAGTTGTTTTCACTTGTCGTAACACACTTTGGATGGGTTGAAGTTCTGCACGTAGAAGCAAAAGGC [A24T G38C] 0.685

Output measured fraction ligated for this item: GAGACCGCAACTGAAAAGTTGTTATCAGTTGTCGTAAGACACTTTGGGTGGGTTGAAGTTCTGCACGTAGAAGCAAAAGGC [C28G A48G] 0.751

Specify reported fraction ligated for the variant shown: GAGACCGCAACTGAAAAGTTGTTATCACCTGGCGTAAGACACTTTGGATGGGTTGAAGTTCTGCACGTAGAAGCAAAAGGC [T29C T32G] 0.794

Please indicate fraction ligated recorded for GAGACCGCAACTGAAAAGTTGTTATCACTTGTCGTAAGAGACTTTGGATGGGTTGCAGTTCTGCACGTAGAAGCAAAAGGC [C40G A56C] 0.784

Determine from records and report fraction ligated for GAGACCGCAACTGAAAAGTTGTTATCACTTGTCGTAATACACCTTGGATGGGTTGAAGTTCTGCACGTAGAAGCAAAAGGC [G38T T43C] 0.814

Consider the variant GAGACCGCAACTGAAAAGTTGTTATCACTTGTCGTAAGCAACTTTGGATGGGTTGAAGTTCTGCACGTAGAAGCAAAAGGC [A39C C40A] and give its recorded fraction ligated. 0.797

Assign fraction ligated to the following record: GAGACCGCAACTGAAAAGTTGTTATCACTGGTCGTAAGACACTTTGGATAGGTTGAAGTTCTGCACGTAGAAGCAAAAGGC [T30G G50A] 0.513

# return recorded fraction ligated for input GAGACCGCAACTGAAAAGTTGTTATCACGTGTCGTAAGACACTTTGGATGGGTTTAAGTTCTGCACGTAGAAGCAAAAGGC [T29G G55T] 0.792

Read the entry GAGACCGCAACTGAAAAGTTGTTATCTCTTGTCGTAAGACACTTAGGATGGGTTGAAGTTCTGCACGTAGAAGCAAAAGGC [A27T T45A] and write its reported fraction ligated. 0.783

# return recorded fraction ligated for entry GAGACCGCAACTGAAAAGTTGTTATCACTTGACGTAAGACACTGTGGATGGGTTGAAGTTCTGCACGTAGAAGCAAAAGGC [T32A T44G] 0.814

Please supply the value of reported fraction ligated for the item GAGACCGCAACTGAAAAGTTGTTATCACTTGTCGCAAGACTCTTTGGATGGGTTGAAGTTCTGCACGTAGAAGCAAAAGGC [T35C A41T] 0.819

Query fraction ligated for GAGACCGCAACTGAAAAGTTGTTATCACTTGTCATAAGCCACTTTGGATGGGTTGAAGTTCTGCACGTAGAAGCAAAAGGC [G34A A39C] 0.8

Look up and state reported fraction ligated for GAGACCGCAACTGAAAAGTTGTTATCAGTTGTCGTACGACACTTTGGATGGGTTGAAGTTCTGCACGTAGAAGCAAAAGGC [C28G A37C] 0.766

Consider the variant GAGACCGCAACTGAAAAGTTGTTATCACTTGTCGTAATACACTTTGGATGGGTTTAAGTTCTGCACGTAGAAGCAAAAGGC [G38T G55T] . State its measured fraction ligated. 0.798

Give fraction ligated for GAGACCGCAACTGAAAAGTTGTTATCACTTGTCGTAAGACACCTTGGATGGGTTGAAGTTCTGCACGTAGAAGCAAAAGGC [T43C] 0.81

Complete the entry with fraction ligated for GAGACCGCAACTGAAAAGTTGTTATCACTTGTCGTAAGACACTTGGGATGGGTTGAGGTTCTGCACGTAGAAGCAAAAGGC [T45G A57G] 0.769

Give reported fraction ligated value for GAGACCGCAACTGAAAAGTTGTTATTACTTGTGGTAAGACACTTTGGATGGGTTGAAGTTCTGCACGTAGAAGCAAAAGGC [C26T C33G] 0.819

Output measured fraction ligated for this item: GAGACCGCAACTGAAAAGTTGTTATCACTAGTCGTAAGACACTTTGGATAGGTTGAAGTTCTGCACGTAGAAGCAAAAGGC [T30A G50A] 0.22

Return the recorded fraction ligated value; entry: GAGACCGCAACTGAAAAGTTGTTAACACTTGTCGTAAGACACTTGGGATGGGTTGAAGTTCTGCACGTAGAAGCAAAAGGC [T25A T45G] 0.029

Look up and state reported fraction ligated for GAGACCGCAACTGAAAAGTTGTTATCACTGGTCGTAAGACACTTTGTATGGGTTGAAGTTCTGCACGTAGAAGCAAAAGGC [T30G G47T] 0.15

Dear colleague, please send me the reported fraction ligated for GAGACCGCAACTGAAAAGTTGTTATGACTTGTCGTAAGATACTTTGGATGGGTTGAAGTTCTGCACGTAGAAGCAAAAGGC [C26G C40T] when you can. 0.678

Write down fraction ligated measured for item GAGACCGCAACTGAAAAGTTGTTAACACTTGTCGTAAGACACTTTGGATTGGTTGAAGTTCTGCACGTAGAAGCAAAAGGC [T25A G50T] 0.536

State its fraction ligated: GAGACCGCAACTGAAAAGTTGTTATCACTTGTCGTCAGACACTTTGGACGGGTTGAAGTTCTGCACGTAGAAGCAAAAGGC [A36C T49C] 0.712

Retrieve fraction ligated measured for GAGACCGCAACTGAAAAGTTGTTATCACGTGTCGTAAGACACTTTGGATGGGTTGTAGTTCTGCACGTAGAAGCAAAAGGC [T29G A56T] and print it. 0.793

Answer with reported fraction ligated of GAGACCGCAACTGAAAAGTTGTTATGACTTGTCGTAAGACACTTTCGATGGGTTGAAGTTCTGCACGTAGAAGCAAAAGGC [C26G G46C] 0.719

Look up and state reported fraction ligated for GAGACCGCAACTGAAAAGTTGTTATCACTTGTCGTAAGACACTTTCGATGGGTTGAAGTTCTGCACGTAGAAGCAAAAGGC [G46C] 0.804

Give the reported fraction ligated for this variant. GAGACCGCAACTGAAAAGTTGTTATCACTTGTCGTAATACACATTGGATGGGTTGAAGTTCTGCACGTAGAAGCAAAAGGC [G38T T43A] 0.808

Query fraction ligated for GAGACCGCAACTGAAAAGTTGTTATCACTTGTCGAAAGGCACTTTGGATGGGTTGAAGTTCTGCACGTAGAAGCAAAAGGC [T35A A39G] 0.851

Determine from records and report fraction ligated for GAGACCGCAACTGAAAAGTTGTTATCATTTGTCGTAAGACACTATGGATGGGTTGAAGTTCTGCACGTAGAAGCAAAAGGC [C28T T44A] 0.816

For the variant GAGACCGCAACTGAAAAGTTGTTATTACTTGTCGTAAGACACTTTGGACGGGTTGAAGTTCTGCACGTAGAAGCAAAAGGC [C26T T49C] , give its measured fraction ligated value. 0.122

Look up and state reported fraction ligated for GAGACCGCAACTGAAAAGTTGTTATCACCTGTCATAAGACACTTTGGATGGGTTGAAGTTCTGCACGTAGAAGCAAAAGGC [T29C G34A] 0.827

Name the recorded fraction ligated of the item GAGACCGCAACTGAAAAGTTGTTATCACTTGTCGGCAGACACTTTGGATGGGTTGAAGTTCTGCACGTAGAAGCAAAAGGC [T35G A36C] in your answer. 0.824

Give me measured fraction ligated, please, for this variant: GAGACCGCAACTGAAAAGTTGTTCTCACTTGTCGTAAGACACCTTGGATGGGTTGAAGTTCTGCACGTAGAAGCAAAAGGC [A24C T43C] 0.231

Supply reported fraction ligated belonging to this variant: GAGACCGCAACTGAAAAGTTGTTATCACTTGTCGTCAGACACTATGGATGGGTTGAAGTTCTGCACGTAGAAGCAAAAGGC [A36C T44A] 0.827

Quick one: give measured fraction ligated for GAGACCGCAACTGAAAAGTTGTTATCACTTGGTGTAAGACACTTTGGATGGGTTGAAGTTCTGCACGTAGAAGCAAAAGGC [T32G C33T] 0.856

Output measured fraction ligated for this item: GAGACCGCAACTGAAAAGTTGTTAGCACTTGTCGTAAGACACTTTGGATGGGTTGCAGTTCTGCACGTAGAAGCAAAAGGC [T25G A56C] 0.0423

Specify measured fraction ligated for GAGACCGCAACTGAAAAGTTGTTATCACTTGTCGTAAGACACTTTGGGTGGGTTCAAGTTCTGCACGTAGAAGCAAAAGGC [A48G G55C] . 0.108

Please supply the value of reported fraction ligated for the item GAGACCGCAACTGAAAAGTTGTTATCACTTATCGTGAGACACTTTGGATGGGTTGAAGTTCTGCACGTAGAAGCAAAAGGC [G31A A36G] 0.595

For the variant GAGACCGCAACTGAAAAGTTGTTATCACTTGTCGTAAGACGCTTAGGATGGGTTGAAGTTCTGCACGTAGAAGCAAAAGGC [A41G T45A] , give its measured fraction ligated value. 0.482

For the variant GAGACCGCAACTGAAAAGTTGTTCTCACTTGTCGTAAGACACTTTGGATGGGTTGCAGTTCTGCACGTAGAAGCAAAAGGC [A24C A56C] , give its reported fraction ligated. 0.0226

Determine its reported fraction ligated: GAGACCGCAACTGAAAAGTTGTTATGAGTTGTCGTAAGACACTTTGGATGGGTTGAAGTTCTGCACGTAGAAGCAAAAGGC [C26G C28G] 0.611

# return recorded fraction ligated for entry GAGACCGCAACTGAAAAGTTGTTATCACTTGTCGTAAGACACCTTGGATTGGTTGAAGTTCTGCACGTAGAAGCAAAAGGC [T43C G50T] 0.441

State, in one line, measured fraction ligated of GAGACCGCAACTGAAAAGTTGTTATCACTTGTCGGAAGACACATTGGATGGGTTGAAGTTCTGCACGTAGAAGCAAAAGGC [T35G T43A] 0.819
